Origin of the recorded values: ChEMBL document CHEMBL2401657

target or test system: Free fatty acid receptor 1 (Homo sapiens)
assay: Agonist activity at FFAR1 (unknown origin) assessed as induction of calcium mobilization at 10 uM by fluorescence assay
Type: functional
Calls of active or inactive are those of the source. The calls are words filed in the database; no cut-off is given here.
parameter: Activity

# compound structure string, parameter, result
rows = [
    ("CCN(Cc1ccc(CCC(=O)O)cc1)C(=O)c1ccc(CN(C(=O)c2ccccc2)C(C)C)cc1", "Activity", "inactive"),
    ("CCN(Cc1ccc(CCC(=O)O)cc1)C(=O)c1cccc(CN(C(=O)c2ccccc2)C(C)C)c1", "Activity", "inactive"),
    ("O=C(O)CCc1ccc(CNC(=O)c2ccc(CNC(=O)c3ccccc3)cc2)cc1", "Activity", "inactive"),
    ("CCN(Cc1cccc(C(=O)NCc2ccc(CCC(=O)O)cc2)c1)C(=O)c1ccccc1", "Activity", "inactive"),
    ("CC(C)N(Cc1ccc(C(=O)N(Cc2ccc(CCC(=O)O)cc2)C(C)C)cc1)C(=O)c1ccccc1", "Activity", "inactive"),
    ("CC(C)N(Cc1ccc(CCC(=O)O)cc1)C(=O)c1ccc(CNC(=O)c2ccccc2)cc1", "Activity", "inactive"),
]

Report Activity for CCN(Cc1cccc(C(=O)N(CC)Cc2ccc(CCC(=O)O)cc2)c1)C(=O)c1ccccc1 please.
inactive

# iterate: CCN(Cc1ccc(CCC(=O)O)cc1)C(=O)c1cccc(CNC(=O)c2ccccc2)c1
inactive

# iterate: CC(C)N(Cc1cccc(C(=O)NCc2ccc(CCC(=O)O)cc2)c1)C(=O)c1ccccc1
inactive
